- System: EKVX
- Protocol summary: NCI tumour cell line growth inhibition, 48 h
The source made the active and inactive calls. No stated cut-off is given here; in the data, active = GI50 up to about 1.1 µM and inactive = higher.

Compound	GI50
CCOC(=O)Cn1c(=O)c2cc(C)cc3c(Cl)nc4c(OC)c(OC)cc1c4c32	> 100 µM (inactive)
Nc1nc(SCCc2ccccc2)c2nc[nH]c2n1	25.2 µM (inactive)
O=c1oc2ccc(Cl)cc2cc1-c1cn2ccsc2n1	26.6 µM (inactive)
C[C@@H]1C(=O)CC2(O)[C@@]13C[C@@H](OC(=O)[C@@H]3O)[C@@H](C)[C@@]21COC1=O (stereo partly specified)	> 100 µM (inactive)
N#Cc1nc(NC(=O)c2ccccc2)sc1N	> 10 µM (inactive)
CC#CS(=O)(=O)c1ccccc1	18.6 µM (inactive)
CC(=O)OCC1OC(Nn2c(=O)[nH]c3ccccc3c2=O)C(OC(C)=O)C(OC(C)=O)C1OC(C)=O (stereo unspecified)	> 100 µM (inactive)
O=C1/C(=C/c2ccc3c(c2)OCO3)SC2C=Nc3ccccc3N12 (stereo unspecified)	> 100 µM (inactive)
CN1CCC23c4c5ccc(O)c4OC2C(=NN=C2CCC4(O)C6Cc7ccc(O)c8c7C4(CCN6C)C2O8)CCC3(O)C1C5 (stereo unspecified)	> 100 µM (inactive)
CCc1ccc(NC(=O)NC(=O)c2ccccc2[N+](=O)[O-])cc1Oc1ncc(Cl)cn1	7.06 µM (inactive)
CCNC(=O)c1ccc(C)c(/N=N/N(C)C)c1	> 100 µM (inactive)
O=C(Nc1ccccn1)/C(=C\C(=O)c1ccc(Cl)cc1)Nc1ccccc1	> 10 µM (inactive)
CN1CCN(c2cc(-c3cc4ccccc4o3)oc(=O)c2C#N)CC1	45.8 µM (inactive)
COc1cc2c(c(OC)c1O)-c1ccc(SC)c(=O)cc1C(NC(C)=O)CC2 (stereo unspecified)	39.7 µM (inactive)
COc1cc(C=O)c(-c2c(C=O)ccc3c2OCO3)c(OC)c1OC	> 100 µM (inactive)
CCn1c(CSc2nc(-c3ccccc3)c(-c3ccccc3)[nH]2)n[nH]c1=S	> 100 µM (inactive)
Cc1cc(O)c(C=O)c2c1C(=O)Oc1c(CO)c(O)c3c(c1O2)C(O)OC3=O (stereo unspecified)	> 100 µM (inactive)
COc1cc2ccc1OCc1cccc(n1)COc1ccc(cc1OC)/C=N\CCNCC/N=C\2	> 100 µM (inactive)
CC(C)(CN1CCCCC1)C(=O)CC(SCCS(=O)(=O)O)c1ccccc1 (stereo unspecified)	14.1 µM (inactive)
CC(=O)Nc1cc([As](=O)(O)O)ccc1O	> 100 µM (inactive)
COC(=O)C1=CC(=O)OC1(OO)c1ccc(Br)cc1 (stereo unspecified)	> 100 µM (inactive)
CC1(c2ccccc2)CC12C(=O)NC(=O)NC2=O (stereo unspecified)	> 100 µM (inactive)
O=C(Nc1cccc(C(F)(F)F)c1)C(=O)C(C(=O)c1ccc2ccccc2c1)C1OC(=O)c2ccccc21 (stereo unspecified)	14.5 µM (inactive)
COc1ccc(-c2nnc(CCCCCCCCc3nnc(-c4ccc(OC)cc4)n3N)n2N)cc1	> 100 µM (inactive)
COC(=O)C(=O)C(C(=O)C=C(C)C)C(=O)C(=O)Nc1nc2ccc([N+](=O)[O-])cc2s1 (stereo unspecified)	33.9 µM (inactive)
CCC(=O)Oc1ccc2c(c1)c(=O)c1c(NCCCN(C)C)ccc3nnn2c31	1.17 µM (inactive)
CCOC(=O)c1ccc(NC(=O)Oc2ccc3c(C)cc(=O)oc3c2)cc1	42.9 µM (inactive)
CCOC(=O)[C@H](CO)NC1=C(Cl)C(=O)c2c(O)ccc(O)c2C1=O	> 10 µM (inactive)
CC(=O)OCCc1cc2ccccc2oc1=O	86.7 µM (inactive)
Oc1ccccc1/C=N/Nc1nnc2c3ccccc3c3ccccc3c2n1	> 100 µM (inactive)
Cc1cc(C)n2c(nc3ccccc32)c1C#N	> 100 µM (inactive)
O=C1N/C(=N/N=C/C(O)C(O)C(O)CO)N/C1=C\c1c[nH]c2ccccc12 (stereo unspecified)	> 100 µM (inactive)
Cc1ccc(S(=O)(=O)N/N=C2\CCC3(O)CC2(C)CCC2C3CC2(C)C)cc1 (stereo unspecified)	40.1 µM (inactive)
O=C(OCc1ccccc1)C(Cc1ccccc1)N(Cc1ccccc1)Cc1ccccc1 (stereo unspecified)	> 100 µM (inactive)
S=C1OC2C3C4CC5C3C(O1)C1C5C4C21 (stereo unspecified)	> 100 µM (inactive)
COC(=O)CCC(C)C1CCC2C3CCC4CC5CCC4(C)C3(O5)C(Br)C(Br)C12C (stereo unspecified)	> 100 µM (inactive)
Nc1nc(N)c(-c2ccccc2)c(C(=O)Nc2ccccc2)n1	> 100 µM (inactive)
Cc1ccc2c(c1)-c1c(C#N)c(N)nc(-c3ccccc3)c1CCS2(=O)=O	18.7 µM (inactive)
COc1ccc(Cc2c(-c3ccc(C)cc3)n[nH]c(=O)c2C2C(=O)N(c3ccccc3)N=C2c2ccccc2)cc1 (stereo unspecified)	26.8 µM (inactive)
OCC(O)C(OC1OC(CO)C(O)C(O)C1O)c1nn(-c2ccccc2)c2nc3cc(Cl)ccc3nc12 (stereo unspecified)	> 100 µM (inactive)
CCOC(=O)CCC(C(=O)OCC)n1nnc2cc(Nc3c(C)[n+]([O-])c4cc(F)c(OCC)cc4[n+]3[O-])ccc21 (stereo unspecified)	> 100 µM (inactive)

Values compiled from ChEMBL document CHEMBL1201862.
